experiment: physchem; settings: organic solvent or mixture, thermodynamic from solid, SOLUBILITY (mg/mL), hexanes, ambient temperature
QUANTITY MEASURED: solubility

// recorded solubility for Cc1cc2c(cc1CC(=O)c1sccc1S(=O)(=O)[N-]c1onc(C)c1Cl)OCO2.[Na+] [Form A] : < 8000 µg/mL

====

experiment: physchem; settings: organic solvent or mixture, thermodynamic from solid, SOLUBILITY (mg/mL), dichloromethane, ambient temperature
QUANTITY MEASURED: solubility

// recorded solubility for Cc1cc2c(cc1CC(=O)c1sccc1S(=O)(=O)[N-]c1onc(C)c1Cl)OCO2.[Na+] [Form A] : < 3000 µg/mL

====

assay: physchem; settings: organic solvent or mixture, thermodynamic from solid, SOLUBILITY (mg/mL), tetrahydrofuran (THF), ambient temperature
QUANTITY MEASURED: solubility (mg/mL)
Write the value in mg/mL as a bare number.

// recorded solubility for Cc1cc2c(cc1CC(=O)c1sccc1S(=O)(=O)[N-]c1onc(C)c1Cl)OCO2.[Na+] [Form A] : 86

====

test: physchem; settings: organic solvent or mixture, thermodynamic from solid, SOLUBILITY (mg/mL), ethyl acetate (EtOAc), ambient temperature
QUANTITY MEASURED: solubility (µg/mL)
Write the value in µg/mL as a bare number.

// recorded solubility for Cc1cc2c(cc1CC(=O)c1sccc1S(=O)(=O)[N-]c1onc(C)c1Cl)OCO2.[Na+] [Form A] : 6000

====

experiment: physchem; settings: organic solvent or mixture, thermodynamic from solid, SOLUBILITY (mg/mL), ethanol (EtOH), ambient temperature
QUANTITY MEASURED: solubility

// recorded solubility for Cc1cc2c(cc1CC(=O)c1sccc1S(=O)(=O)[N-]c1onc(C)c1Cl)OCO2.[Na+] [Form A] : 60 mg/mL

====

assay: physchem; details: organic solvent or mixture, thermodynamic from solid, SOLUBILITY (mg/mL), acetonitrile (ACN), ambient temperature
QUANTITY MEASURED: solubility (mg/mL)
Write the value in mg/mL as a bare number.

// recorded solubility for Cc1cc2c(cc1CC(=O)c1sccc1S(=O)(=O)[N-]c1onc(C)c1Cl)OCO2.[Na+] [Form A] : 25

====

assay: physchem; settings: water, thermodynamic from solid, SOLUBILITY (mg/mL), ambient temperature
QUANTITY MEASURED: solubility (mg/mL)
Write the value in mg/mL as a bare number.

// recorded solubility for Cc1cc2c(cc1CC(=O)c1sccc1S(=O)(=O)[N-]c1onc(C)c1Cl)OCO2.[Na+] [Form A] : 48

====

test: physchem; conditions: organic solvent or mixture, thermodynamic from solid, SOLUBILITY (mg/mL), methyl ethyl ketone (MEK), ambient temperature
QUANTITY MEASURED: solubility (mg/mL)
Write the value in mg/mL as a bare number.

// recorded solubility for Cc1cc2c(cc1CC(=O)c1sccc1S(=O)(=O)[N-]c1onc(C)c1Cl)OCO2.[Na+] [Form A] : 34

====

experiment: physchem; conditions: organic solvent or mixture, thermodynamic from solid, SOLUBILITY (mg/mL), toluene, ambient temperature
QUANTITY MEASURED: solubility

// recorded solubility for Cc1cc2c(cc1CC(=O)c1sccc1S(=O)(=O)[N-]c1onc(C)c1Cl)OCO2.[Na+] [Form A] : < 7000 µg/mL
